# assay-target: Bifunctional protein GlmU (Mycobacterium tuberculosis (strain ATCC 25618 / H37Rv)) (UniProt P9WMN3)
# Sequence (P9WMN3 whole entry, looked up): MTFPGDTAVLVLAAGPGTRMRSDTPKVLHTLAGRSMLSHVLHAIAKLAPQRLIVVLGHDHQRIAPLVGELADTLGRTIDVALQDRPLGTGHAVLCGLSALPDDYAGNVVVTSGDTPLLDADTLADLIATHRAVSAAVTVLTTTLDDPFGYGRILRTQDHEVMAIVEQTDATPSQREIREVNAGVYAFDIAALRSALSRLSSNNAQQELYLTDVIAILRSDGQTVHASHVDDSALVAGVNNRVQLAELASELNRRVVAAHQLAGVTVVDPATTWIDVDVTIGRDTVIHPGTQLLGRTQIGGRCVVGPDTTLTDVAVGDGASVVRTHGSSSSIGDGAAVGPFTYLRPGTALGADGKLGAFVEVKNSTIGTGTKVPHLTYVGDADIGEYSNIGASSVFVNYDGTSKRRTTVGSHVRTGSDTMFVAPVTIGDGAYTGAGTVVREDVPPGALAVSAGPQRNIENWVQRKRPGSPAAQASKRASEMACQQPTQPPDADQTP
# test-details: inhibition of mycobacterial GlmU enzyme – biochemical, glucosamine-1-phosphate acetyltransferase (AID 1376);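 note: 0% = complete reaction with vehicle and 100% = reaction without substrate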
# protocol-conditions: M. tuberculosis GlmU acetyltransferase enzyme assay;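 tested at 30 µM in the primary screen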
About 530 (0.24%) of roughly 220,000 compounds were called active. Cut-off read from the data, not from the text of the source: active = inhibition above about 13%; inconclusive = no clear call, values can overlap the other calls; inactive = below that. The sample as a whole holds a higher share of actives than the screen did. Entries with a potency or affinity are not part of this list.
Form entry, call: pick from label 1 for active, label 0 for inactive

{"compound": "c1cncc(-c2nnc3n2CCC3)c1", "label": "label 0"}
{"compound": "O=C(CCC(=O)c1cccs1)Nc1nnc(C2CC2)s1", "label": "label 0"}
{"compound": "COCCCNC(=O)c1cc(C)nc2ccc(F)cc12", "label": "label 0"}
{"compound": "Cc1cc([N+](=O)[O-])nn1CCCC(=O)Nc1c(C)n(C)n(-c2ccccc2)c1=O", "label": "label 0"}
{"compound": "O=C(c1ccccc1)c1ccccc1C(=O)N1CCN(C(=O)c2ccccc2)CC1", "label": "label 0"}
{"compound": "CSc1cccc(NC(=O)CN(Cc2ccc(Cl)cc2)S(C)(=O)=O)c1", "label": "label 0"}
{"compound": "CCOc1ccc(/C=C2\\SC(=S)NC2=O)cc1OC", "label": "label 0"}
{"compound": "Cc1ccc(O)c(CC(C)C)n1", "label": "label 0"}
{"compound": "Cc1ccc2nc(C)cc(N/N=C/c3cccnc3)c2c1", "label": "label 0"}
{"compound": "O=C(Nc1cccnc1)c1cc2c(ccc3ccccc32)o1", "label": "label 0"}

Recorded test outcome, item CN(CC(=O)NCCc1ccc(Cl)cc1)S(=O)(=O)c1ccc2c(c1)c(=O)n(C)c(=O)n2C
label 0

Thanks! And CC(C)N1CCC(N2CCN(Cc3ccc4nsnc4c3)CC2CCO)CC1 (stereo unspecified) ?
label 0

Query COc1cccc2sc(NNC(=O)C3COc4ccccc4O3)nc12 (stereo unspecified) next
label 0

Then CCCCSc1nc(CCC)cc(=O)[nH]1 ?
label 0

---

# assay-target: Bifunctional protein GlmU (Mycobacterium tuberculosis (strain ATCC 25618 / H37Rv)) (UniProt P9WMN3)
# test-details: inhibition of mycobacterial GlmU enzyme – biochemical, glucosamine-1-phosphate acetyltransferase (AID 1376);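 note: 0% = complete reaction with vehicle and 100% = reaction without substrate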
# protocol-conditions: M. tuberculosis GlmU acetyltransferase enzyme assay; hits give high values;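 tested at 30 µM in the primary screen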
Among all 220,000 compounds or so, about 530 (0.24%) were called active. The sample holds actives, similar compounds and a random draw of the others, so the mix is not that of the screen. Potency and affinity values are given separately.
quantity-measured: inhibition (%)
The response must be a number in % with no trailing unit.

{"compound": "Nc1ncnc(Nc2ccc(S(N)(=O)=O)cc2)n1", "inhibition (%)": -0.83}
{"compound": "COc1ccc(CNC(=O)Nc2ccc3c(c2)N(C)C(=O)CS3)cc1", "inhibition (%)": -4.33}
{"compound": "Fc1ccc(OCc2nn3cnnc3s2)cc1", "inhibition (%)": 18.4}
{"compound": "Fc1ccc(OCc2nc3ccccc3s2)cc1", "inhibition (%)": 0.65}
{"compound": "Nc1cc2nc3ccccc3nc2cc1N", "inhibition (%)": 1.38}

Value lookup for inhibition; key = Fc1ccc(OCc2nn3c(Cn4nnc5ccccc54)nnc3s2)cc1
3.23

Another compound: Nc1ccc2nc3c(=O)n(C4CCCCC4)c(=O)[nH]c3nc2c1
-0.52

Another: CC1CC(C)CN(C(=O)Cn2c(=O)n(CCCCC(=O)NCc3ccco3)c(=O)c3ccccc32)C1 (stereo unspecified)
4.18

Cool, now Cc1ccc(-c2nc3ccccc3s2)cc1NC(=S)NC(=O)/C=C/c1ccco1
3.24

Same read-out for Cc1cc(C(=O)NC(C)c2ccccc2)c2cc(F)ccc2n1 (stereo unspecified) ?
2.48

Next: O=C(/C=C/c1ccco1)NC(=S)Nc1cccc(-c2nc3ccccc3s2)c1
-0.02
